# System: SN12C
# Assay Procedure: NCI tumour cell line growth inhibition, 48 h
The source made the active and inactive calls. Rule as the data show it: active = GI50 up to about 1.1 µM and inactive = higher.
For each entry below, report its GI50 value.

Request the reported GI50 associated with NCCCN1CCN(CC(=O)O)CCN(CCCN)CCN(CC(=O)O)CC1
> 100 µM (inactive)

Request the reported GI50 associated with COC(=O)C1=C(c2ccc(OC)c(OC)c2)OC(c2cc(OC)c(OC)c(OC)c2)C1 (stereo unspecified)
34.3 µM (inactive)

Request the reported GI50 associated with Cn1c(O)c(C2=Nc3ccccc3C2=O)c2ccccc21
> 100 µM (inactive)

Request the reported GI50 associated with C/C(=N\N(C)C)C(CN1CCCCC1)C(c1ccccc1)c1c(O)c2ccccc2oc1=O (stereo unspecified)
> 100 µM (inactive)

Request the reported GI50 associated with O=C(CCN1CCOCC1)c1ccc(Oc2ccc(F)cc2)cc1
30.9 µM (inactive)

Request the reported GI50 associated with C=C1C(=O)OC2/C=C(/C)C3(O)OC(C)(CC(OC(=O)C(C)C)C12)CC3OC(C)=O (stereo unspecified)
4.9 µM (inactive)

Request the reported GI50 associated with OC1(c2ccc(Cl)cc2)c2c(ccc3c2OCO3)C2=NCCN21 (stereo unspecified)
53.7 µM (inactive)

Request the reported GI50 associated with O=C(CC(=O)N1N=C(N2CCCCC2)CC1c1ccccc1)Nc1ccc(Cl)cc1 (stereo unspecified)
> 100 µM (inactive)

Request the reported GI50 associated with O=[N+]([O-])c1cccc(-c2ncnc(-c3cccc([N+](=O)[O-])c3)n2)c1
> 100 µM (inactive)

Request the reported GI50 associated with C=C(CCCCCCCCC)CC(=O)SCCNC(=O)CCNC(=O)C(O)C(C)(C)COP(=O)(O)OP(=O)(O)OCC1OC(n2cnc3c(N)ncnc32)C(O)C1OP(=O)(O)O (stereo unspecified)
> 84.3 µM (inactive)

Request the reported GI50 associated with Cc1cc(Cc2c(C)c(C)c(Cc3cc(C)cc(C(C)(C)C)c3O)c(C)c2C)c(O)c(C(C)(C)C)c1
> 100 µM (inactive)

The measured values listed here are drawn from ChEMBL document CHEMBL1201862.
